Data origin, for the record: patent US10662235B2

Second Scan Tm: recorded values
- assay explanation: Thermal stability by differential scanning calorimetry
- Assay type: physicochemical
- cond: cysteine-NEM conjugates, second identical scan
Give the number; °C is assumed, so skip it.

molecule	result number
T59C (protein, EGFR binding FN3 domain; EGFR-binding FN3 domain) chain 1: MLPAPKNLVVSEVTEDSARLSWDDPWAFYESFLIQYQESEKVGEAIVLTVPGSERSYDLCGLKPGTEYTVSIYGVHNVYKDTNMRGLPLSAIFTT chain 2: LPAPKNLVVSEVTEDSARLSWDDPWAFYESFLIQYQESEKVGEAIVLTVPGSERSYDLCGLKPGTEYTVSIYGVHNVYKDTNMRGLPLSAIFTT	67

Shifting focus to the molecule that follows.
Q: Which value of Second Scan Tm has been reported for T48C (protein, EGFR binding FN3 domain; EGFR-binding FN3 domain) chain 1: MLPAPKNLVVSEVTEDSARLSWDDPWAFYESFLIQYQESEKVGEAIVLCVPGSERSYDLTGLKPGTEYTVSIYGVHNVYKDTNMRGLPLSAIFTT chain 2: LPAPKNLVVSEVTEDSARLSWDDPWAFYESFLIQYQESEKVGEAIVLCVPGSERSYDLTGLKPGTEYTVSIYGVHNVYKDTNMRGLPLSAIFTT in the records?
Ans: 72
